Origin of measurements: PubChem BioAssay (NCI)

Test system: EKVX NSCLC
PROTOCOL DESCRIPTION: NCI-60 one-dose screen, 48 h
EXPERIMENTAL PARAMETERS: 10 µM unless noted
Compounds without any hit were thinned out: in the full panel of roughly 83,000, 20% have a hit. Activity calls are given as the source filed them. How the source made its calls: active means growth percent below 10; inactive means the rest.
Could you please pick one outcome from this set? TRUE for active, FALSE for inactive

Worked examples follow.
INSERT INTO measurements (compound, group) VALUES
  ('CN(C)c1ccc(/C=N/NC(=O)CSc2nc3sc4c(c3c(=O)n2-c2ccccc2)CCCCC4)cc1', 'FALSE'),
  ('Cc1c(-c2cnc3ccc(Cl)cc3c2C(=O)O)nnn1-c1ccc(Cl)cc1', 'FALSE'),
  ('CC(=O)O[C@H]1CC[C@@]2(C)C(=CC[C@@H]3[C@@H]2CC[C@]2(C)C(Cl)=C(c4nc5ccc(Cl)cn5c4NC(C)(C)C)C[C@@H]32)C1', 'FALSE'),
  ('COC(=O)c1c(C)nc(C)c2c1C(=O)C(Br)=C(NCCCCO)C2=O', 'FALSE'),
  ('O=C1CCC(C(=O)N/N=C/c2ccc([N+](=O)[O-])cc2)N1 (stereo not drawn)', 'FALSE');

input: Could you please tell me the result logged for Oc1ccc(C2OCCO2)c2cccnc12 in this assay?
output: FALSE

input: Could you please tell me the result logged for O=C(/C=C/c1ccc([N+](=O)[O-])cc1)c1cccc(Nc2nc(Nc3ccccc3)nc(Nc3ccccc3)n2)c1 in this assay?
output: FALSE
